biological target: VTCN1, Q7Z7D3
Sequence (Q7Z7D3 whole entry): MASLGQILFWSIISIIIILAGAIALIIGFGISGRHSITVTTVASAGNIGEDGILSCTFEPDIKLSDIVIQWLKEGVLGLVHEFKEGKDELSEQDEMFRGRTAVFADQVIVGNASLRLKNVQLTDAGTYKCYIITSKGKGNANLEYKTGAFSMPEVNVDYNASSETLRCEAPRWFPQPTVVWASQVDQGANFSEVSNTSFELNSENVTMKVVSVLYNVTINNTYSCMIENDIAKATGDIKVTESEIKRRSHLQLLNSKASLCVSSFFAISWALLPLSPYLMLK
measurement_kind: binding in a display sort

{"binder": "design_600_24101276-ad9d-4944-b73e-53bb160363ad_1889_dldesign_0_cycle1_af2pred (protein) MAEKEALIAELKAKAAEAKAKGAAGSAGEQFQWDVIAAGYEKGAEAAKKAKTAEEAKKAAKEAVEKAKRVAEHIKKSEEEAEKRA", "result": "not found (inactive)"}
{"binder": "design_607_777643b9-bd23-49d1-80ae-2b1434974efa_839_dldesign_0_cycle1_af2pred (protein) AAAAAKAQADAILADAKAKAAEALKKDPKTGAEEAAKIYRAAAAKLRALGAEVADDPEAVAYLSKVAAELYELAAEYASKAARL", "result": "not found (inactive)"}
{"binder": "design_606_b60ff77f-1541-4e5f-8260-46d5e5f6b85e_1085_dldesign_0_cycle1_af2pred (protein) ATAKEAAEYAEKAREYMVELEYERIKAKREGDEETAKRLEKAIEEVREKLKKAREAMKAGDKEKALEYSKEALEIAKKAVEELKA", "result": "not found (inactive)"}
